- System: RBL-2H3 cells
- Assay Procedure: Inhibition of serotonin liberation from IgE-sensitized, antigen-stimulated RBL-2H3 cells ([3H]-serotonin)
- Assay type: cell-based
- Assay Conditions: Rattus norvegicus; IgE-sensitized RBL-2H3 cells stimulated with specific antigen; [3H]-labeled serotonin
Recorded measurements of IC50, one per entry
Expressed in µM, but write only the number.

COC(=O)c1ccc(CNCCCn2c3ccccc3c(=O)c3ccc(C)c(C)c32)cc1; 4
Cc1ccc2c(=O)c3ccccc3n(Cc3ccccc3CNCc3ncc[nH]3)c2c1C; 5
Cc1ccc2c(=O)c3c(CC(=O)O)cccc3n(CCCN(C)Cc3cccc4ccccc34)c2c1C; 10

Please turn your attention to the following entry.
IC50 reading for CCN(CCCn1c2cccc(CC(=O)O)c2c(=O)c2ccc(C)c(C)c21)Cc1ccccc1 : 8

----------
- Tested on: RBL-2H3 cells
- Assay Procedure: Inhibition of serotonin liberation from IgE-sensitized, antigen-stimulated RBL-2H3 cells ([3H]-serotonin)
- Format: cell-based
- Assay Conditions: Rattus norvegicus; IgE-sensitized RBL-2H3 cells stimulated with specific antigen; [3H]-labeled serotonin
# note: boundary value 4 µM maps to Criterion not met; IC50 below it maps to Criterion met

Past entries and their recorded results:
Cc1ccc(CNCCCn2c3cc(F)ccc3c(=O)c3ccc(C)c(C)c32)cc1; Criterion met
Cc1ccc2c(=O)c3c(C(C)CC(=O)O)cccc3n(CCCNCc3ccccc3)c2c1C (stereo not drawn); Criterion not met
Cc1ccc2c(=O)c3ccccc3n(CCCN(CCC#N)Cc3ccccc3)c2c1C; Criterion met
Cc1ccc2c(=S)c3ccccc3n(CCCN)c2c1C; Criterion not met
Cc1ccc2c(=O)c3c(CC(=O)O)cccc3n(CCCNCc3ccccc3C(F)(F)F)c2c1C; Criterion met

Field: below-cutoff. Rule: recorded IC50 strictly less than 4 µM. Subject: Cc1ccc2c(=O)c3ccccc3n(Cc3ccc(CNCc4ccco4)cc3)c2c1C
Criterion not met

Input Cc1ccc2c(=O)c3ccccc3n(CCCNCc3ccc(C(N)=O)cc3)c2c1C ; condition: IC50 strictly below 4 µM. Does it hold?
Criterion not met

Strictly below 4 µM in IC50? COc1cccc2c1c(=O)c1ccc(C)c(C)c1n2CCCNCc1ccc(C)cc1
Criterion met

----------
- System: RBL-2H3 cells
- Assay Procedure: Inhibition of serotonin liberation from IgE-sensitized, antigen-stimulated RBL-2H3 cells ([3H]-serotonin)
- Type: cell-based
- Assay Conditions: Rattus norvegicus; IgE-sensitized RBL-2H3 cells stimulated with specific antigen; [3H]-labeled serotonin
Binary label based on IC50 with cut-off 5 µM: below gives satisfied, not below gives not satisfied.

Example results:
Cc1ccc2c(=O)c3c(CC(=O)O)cccc3n(CCCNCc3ccccc3)c2c1C; satisfied
Cc1ccc2c(=O)c3c(C(C)C(=O)O)cccc3n(CCCNCc3ccc(Cl)cc3Cl)c2c1C (centres unmarked); satisfied
Cc1ccc2c(=O)c3ccccc3n(CCCNCc3ccc(F)cc3)c2c1C; satisfied
Cc1ccc2c(=O)c3c(CC(=O)O)cccc3n(CCCN(CCO)Cc3ccccc3)c2c1C; satisfied
Cc1ccc2c(=O)c3c(CC(=O)O)cccc3n(CCCNCc3ccc(Cl)cc3Cl)c2c1C; satisfied
Cc1ccc2c(=O)c3ccccc3n(Cc3ccccc3CN)c2c1C; not satisfied
Cc1ccc2c(=O)c3ccccc3n(CCCNCc3c(Cl)cccc3Cl)c2c1C; satisfied
Cc1ccc2c(=O)c3c(CC(=O)O)cccc3n(CCCNCc3ccc(O)cc3)c2c1C; satisfied

Is 5 µM strictly greater than the compound's reported IC50? compound: Cc1ccc2c(=O)c3ccccc3n(CCCNCc3cccc(C(=O)O)c3)c2c1C
not satisfied

Strictly below 5 µM: is that where IC50 of Cc1ccc2c(=O)c3c(CC(=O)O)cccc3n(CCCNCc3ccco3)c2c1C sits?
satisfied

Hello, is IC50 of the following compound strictly smaller than 5 µM? Cc1ccc2c(=O)c3ccccc3n(CCCNCc3ccccc3Cl)c2c1C
not satisfied

Problem: For the compound COc1ccc(CNCCCn2c3cccc(CC(=O)O)c3c(=O)c3ccc(C)c(C)c32)c(OC)c1 , is IC50 under 5 µM?
not satisfied

Answer whether the compound Cc1ccc2c(=O)c3c(CC(=O)O)cccc3n(CCCNCc3ccc(Cl)c(Cl)c3O)c2c1C has IC50 strictly less than 5 µM
not satisfied

Is 5 µM strictly greater than the compound's reported IC50? compound: Cc1ccc(CN(C)CCCn2c3cccc(CC(=O)O)c3c(=O)c3ccc(C)c(C)c32)c(C)c1
not satisfied
